Target sequence: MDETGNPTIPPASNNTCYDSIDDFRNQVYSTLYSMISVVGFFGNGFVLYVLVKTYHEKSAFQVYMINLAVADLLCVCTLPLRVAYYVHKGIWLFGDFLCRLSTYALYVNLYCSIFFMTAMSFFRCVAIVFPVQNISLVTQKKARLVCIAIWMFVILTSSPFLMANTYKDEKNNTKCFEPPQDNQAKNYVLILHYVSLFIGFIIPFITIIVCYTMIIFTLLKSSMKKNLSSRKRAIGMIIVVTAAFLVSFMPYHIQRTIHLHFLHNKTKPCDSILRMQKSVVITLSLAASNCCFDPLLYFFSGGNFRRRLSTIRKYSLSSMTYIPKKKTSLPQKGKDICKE
pIC50: −log10 of the molar value.
A collection of compounds and their measured pIC50

{"Compound": "NC(=O)N1C(=O)C(=C(O)c2cccs2)c2cc(Cl)ccc21 [Tenidap Na^+, reference compound]", "pIC50": 3.38}
{"Compound": "O=C(O)c1ccccc1Sc1cccc(OCCCN2CCN(Cc3ccc(Cl)cc3)CC2)c1", "pIC50": 4.80}
{"Compound": "CCCc1c(OCCCOc2cccc(Sc3ccc(C(=O)O)cc3)c2)ccc(C(C)=O)c1O", "pIC50": 4.82}
{"Compound": "CCCc1c(OCCCCOc2cccc(Sc3ccc(C(=O)O)cc3)c2)ccc(C(C)=O)c1O", "pIC50": 4.41}
{"Compound": "O=C(O)c1ccccc1Sc1cccc(OCc2ccc3ccccc3n2)c1", "pIC50": 6.20}
{"Compound": "CCCc1c(OCCCCOc2ccc(Sc3ccccc3C(=O)O)cc2)ccc(C(C)=O)c1O", "pIC50": 4.87}
{"Compound": "CCCc1c(OCCCOc2ccc(Sc3ccccc3CC(=O)O)cc2)ccc(C(C)=O)c1O", "pIC50": 4.43}
